// data source = paper PMC3050645

pKd: −log10 of the molar value.
Assay read-out pKd; system under study: Chlorite dismutase (Cld) (Dechloromonas aromatica (nom. nud.)).
Sequence (Q47CX0 35-282): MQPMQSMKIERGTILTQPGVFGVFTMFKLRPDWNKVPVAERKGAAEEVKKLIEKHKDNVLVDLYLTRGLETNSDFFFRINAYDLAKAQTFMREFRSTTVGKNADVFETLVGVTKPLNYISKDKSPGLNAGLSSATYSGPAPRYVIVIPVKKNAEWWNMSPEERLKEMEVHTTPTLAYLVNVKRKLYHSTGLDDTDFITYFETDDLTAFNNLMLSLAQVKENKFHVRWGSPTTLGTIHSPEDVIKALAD

{"compound": "O=NO [NaNO2]", "pKd": 3.11}
{"compound": "c1ccncc1 [Pyridine]", "pKd": 3.26}
{"compound": "c1c[nH]cn1 [Imidazole]", "pKd": 5.12}
{"compound": "N#CS [KSCN]", "pKd": 4.13}
